Below, each entry is listed alongside its reported protein stability index.
B1: ESRRA (parent)
chain: LGVAQRSLPLQDELAFAEDLVLDE

# Variants of: B1
# Assay Protocol: protein stability index of a GFP-peptide fusion (GPS, HEK-293T) (PSI 1-6); higher = more stable;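 further: lentivirally expressed fusions sorted by FACS into six bins by GFP to DsRed ratio, PSI derived from sequencing read proportions per bin multiplied by bin number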
# Stated Conditions: c terminus: a fixed tail appended
The answer should be a number; do not append a unit.

Examples with their reported protein stability index follow.
LGVAQRSLPLQDELAFAEDLVGDE : 5.51
LGVAQRSLPLQDELAFAEDPVLDE : 5.75
SGVAQRSLPLQDELAFAEDLVLDE : 3.75

Data request: What does the data say about its protein stability index? Entry: LGVAQRSLPLQDELAFSEDLVLDE
Data returned: 4.49

Data request: Try LQVAQRSLPLQDELAFAEDLVLDE next.
Data returned: 2.98

Data request: Please give the result for CGVAQRSLPLQDELAFAEDLVLDE too.
Data returned: 2.57
